The measured values listed here are drawn from patent US20070049564A1.

- Test system: E. coli GC 3226
- Method Notes: MIC, broth microdilution
- Study Conditions: Escherichia coli, GC3226, read-out: MINIMAL INHIBITORY CONCENTRATION MIC, pre-incubated in Mouse Serum
Reported Property: MIC
Could you give the number and then its unit, please?

CCCN(CC(=O)Nc1cc(N(C)C)c2c(c1O)C(=O)C1=C(O)[C@]3(O)C(=O)C(C(N)=O)=C(O)[C@@H](N(C)C)[C@@H]3C[C@@H]1C2)C(=O)OCOC(=O)c1ccsc1 [Example 27]    0.5 µg/mL
CCCCN(CC(=O)Nc1cc(N(C)C)c2c(c1O)C(=O)C1=C(O)[C@]3(O)C(=O)C(C(N)=O)=C(O)[C@@H](N(C)C)[C@@H]3C[C@@H]1C2)C(=O)OCOC(=O)c1ccc(-c2ccccc2)cc1 [Example 21]    8 µg/mL
Cc1ccc(C(=O)OCOC(=O)N(CC(=O)Nc2cc(N(C)C)c3c(c2O)C(=O)C2=C(O)[C@]4(O)C(=O)C(C(N)=O)=C(O)[C@@H](N(C)C)[C@@H]4C[C@@H]2C3)C(C)(C)C)cc1 [Example 47]    2 µg/mL
CN(C)c1cc(NC(=O)CN(C(=O)OCOC(=O)C2CCCC2)C(C)(C)C)c(O)c2c1C[C@H]1C[C@H]3[C@H](N(C)C)C(O)=C(C(N)=O)C(=O)[C@@]3(O)C(O)=C1C2=O [Example 46]    1 µg/mL

Consider now this further molecule.
stdin: Lab request: please report MIC under test system E. coli GC 3226 for CCCCN(CC(=O)Nc1cc(N(C)C)c2c(c1O)C(=O)C1=C(O)[C@]3(O)C(=O)C(C(N)=O)=C(O)[C@@H](N(C)C)[C@@H]3C[C@@H]1C2)C(=O)OCOC(=O)c1cccs1 [Example 23]
stdout: 8 µg/mL

====

- Test system: E. faecalis GC 4555
- Method Notes: MIC, broth microdilution
- Study Conditions: Enterococcus faecalis, GC4555, read-out: MINIMAL INHIBITORY CONCENTRATION MIC, Water
Collected MIC values appear next to each entry.
Could you give the number and then its unit, please?

Look over these answered cases.
CCCCOC(=O)N(CC(=O)Nc1cc(N(C)C)c2c(c1O)C(=O)C1=C(O)[C@]3(O)C(=O)C(C(N)=O)=C(O)[C@@H](N(C)C)[C@@H]3C[C@@H]1C2)C(C)(C)C    8 µg/mL
CN(C)c1cc(NC(=O)CN(C(=O)OCOC(=O)c2ccc(F)cc2)C(C)(C)C)c(O)c2c1C[C@H]1C[C@H]3[C@H](N(C)C)C(O)=C(C(N)=O)C(=O)[C@@]3(O)C(O)=C1C2=O    4 µg/mL
CCCCCCC(=O)OCOC(=O)N(CC(=O)Nc1cc(N(C)C)c2c(c1O)C(=O)C1=C(O)[C@]3(O)C(=O)C(C(N)=O)=C(O)[C@@H](N(C)C)[C@@H]3C[C@@H]1C2)C(C)(C)C    2 µg/mL
CN(C)c1cc(NC(=O)CN(C(=O)OCOC(=O)C2CCCCC2)C(C)(C)C)c(O)c2c1C[C@H]1C[C@H]3[C@H](N(C)C)C(O)=C(C(N)=O)C(=O)[C@@]3(O)C(O)=C1C2=O    4 µg/mL

Consider now this further compound.
stdin: Give its MIC value. Item: Cc1cc(C)cc(C(=O)OCOC(=O)N(CC(=O)Nc2cc(N(C)C)c3c(c2O)C(=O)C2=C(O)[C@]4(O)C(=O)C(C(N)=O)=C(O)[C@@H](N(C)C)[C@@H]4C[C@@H]2C3)C(C)(C)C)c1
stdout: 16 µg/mL
